Tested on: benzodiazepine site of the GABAA/BZ/chloride channel complex (rat brain GBR enriched synaptosomal preparation)
Test: Enhancement of [3H]-Flunitrazepam binding to the benzodiazepine site in rat brain synaptosomal membranes
Conditions: maximum stimulation of 1 nM [3H]-Flunitrazepam specific binding, normalized to control without test compound
Hi there, I'd appreciate the recorded Maximum stimulation for every entry that follows.
Numbers only, in %.

Take a look at these entries with their results.
* C[C@]12CC[C@@H](N=[N+]=[N-])C[C@@H]1CC[C@@H]1[C@@H]2CC[C@]2(C)[C@@H](C(=O)CN=[N+]=[N-])CC[C@@H]12 | 16.4
* CC(=O)[C@H]1CC[C@H]2[C@@H]3CC[C@H]4C[C@H](O)CC[C@]4(C)[C@H]3CC[C@]12C [3α-hydroxy-5α-pregnan-20-one, reference compound] | 36
* Cc1ccc(C#C[C@H]2CC[C@H]3[C@@H]4CC[C@H]5C[C@H](O)CC[C@]5(C)[C@H]4CC[C@]23C)cc1 | 52.6
* C#CC(OC)[C@H]1CC[C@H]2[C@@H]3CC[C@H]4C[C@H](O)CC[C@]4(C)[C@H]3CC[C@]12C (mixture of isomers) [17β-(1-methoxy-2-propynyl)-5α-androstan-3α-ol (mixture of C-20 epimers)] | 18.1
* COc1ccc(C#CC(O)[C@H]2CC[C@H]3[C@@H]4CC[C@H]5C[C@H](O)CC[C@]5(C)[C@H]4CC[C@]23C)cc1 (single isomer, unassigned) | 23.3

The following compounds each have a reported value; give each one's Maximum stimulation.
1. C[C@]12CC[C@@H](O)C[C@@H]1CC[C@@H]1[C@@H]2CC[C@]2(C)[C@@H](C#CBr)CC[C@@H]12
2. COC(=O)C#C[C@H]1CC[C@H]2[C@@H]3CC[C@H]4C[C@H](O)CC[C@]4(C)[C@H]3CC[C@]12C
3. C=C=CC(O)[C@H]1CC[C@H]2[C@@H]3CC[C@H]4CC(O)CC[C@]4(C)[C@H]3CC[C@]12C (mixture of isomers) [17β-(1-hydroxy-2,3-butadienyl)-5α-androstane-3ol (mixture of C-20 epimers)]

1: 72.7; 2: 55.6; 3: 45.8

The values you see were collected from patent US7064116B2.
